Molecular target: T1, human GREM1 (hGREM1-His; SEQ ID NO: 595) (human, UniProt O60565 25-184)
T1 construct: also called biotin-hGREM1-His; recombinant human GREM1 protein
T1 sequence: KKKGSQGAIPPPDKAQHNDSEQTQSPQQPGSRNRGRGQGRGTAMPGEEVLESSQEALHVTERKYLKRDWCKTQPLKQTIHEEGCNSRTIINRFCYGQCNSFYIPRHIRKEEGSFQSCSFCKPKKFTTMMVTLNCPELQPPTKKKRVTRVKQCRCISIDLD
Experiment: SPR, Biacore T200, 25 C, mAb captured, hGREM1-His injected;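 note: Heparin-supplemented HBS-EP+ used as running buffer, association and dissociation phases followed, Kd computed as koff divided by kon and half-life derived from koff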

Binder: H2bM2891N (antibody, mouse IgG2, V domains shown, H2M prefix = mouse IgG2 Fc (here H2bM); also called H2M2891N) VH: EVQMVESGGGLVQPGGSLRLSCAASRFTLSNYWMGWVRQAPGKGLEWVANIKQDGSEKYYVDSVRGRFTISRDNAKNSLYLQMNSLRAEDTAVYYCARDYDFWRSFDYWGQGTLVTVPS VL: DIQMTQSPSSVSASVGDRVTITCRASQGVSSWLAWYQQTPGKAPKLLIYVVSSLQSGVPSRFSGSGSGTDFTLTINSLQPEDFATYYCQQGNSFPYTFGQGTKLEIK
koff: 0.0012 s⁻¹
--
Binder: H1M2907N (antibody, V domains shown, H1M prefix marks the Fc (chimeric, mouse constant domains)) VH: QVQLVESGGGVVQPGRSLRLSCAASGFTFSSYGMHWVRQAPGKGLEWVAIIWNDGSNKYYVDSVKGRFTISRANSKNTLYLQMNSLRAEDTAVYYCARDGLEPDAFDIWGQGTMVTVSS VL: EIVLTQSPATLSLSPGERATLSCRASQSVSSFLAWYQQKPGQAPRLLIYDASNRATGIPARFSGSGSGTDFTLTISSLEPEDFAVYYCQQRSNWPPYTFGQGTKLEIK
koff: 0.00281 s⁻¹
--
Binder: H3M2788N (antibody, V domains shown, H3M prefix marks the Fc (chimeric, mouse constant domains)) VH: QVQLVESGGGVVQPGRSLRLSCAASGFTFSSHGMHWVRQAPGKGLEWVAVIWYDGSNKYHADSVKGRFTIYRDNSKNTLDLQMNSLRVEDTAMYYCAREDSNNEDLDYWGQGTLVTVSS VL: DIQMTQSPSSLSASVGDRVTITCRASQGIRNDLGWFQQKPGKAPKRLIYVASNLQSGVPSRFSGSGSGTEFTLTISSLQPEDFATYYCLQHSNYPPWTFGQGTKVEIK
koff: 0.00035 s⁻¹
